# Target or system: Recombinant human glycogen synthase kinase 3 beta (Homo sapiens, UniProt P49841)
# Sequence (P49841 whole entry): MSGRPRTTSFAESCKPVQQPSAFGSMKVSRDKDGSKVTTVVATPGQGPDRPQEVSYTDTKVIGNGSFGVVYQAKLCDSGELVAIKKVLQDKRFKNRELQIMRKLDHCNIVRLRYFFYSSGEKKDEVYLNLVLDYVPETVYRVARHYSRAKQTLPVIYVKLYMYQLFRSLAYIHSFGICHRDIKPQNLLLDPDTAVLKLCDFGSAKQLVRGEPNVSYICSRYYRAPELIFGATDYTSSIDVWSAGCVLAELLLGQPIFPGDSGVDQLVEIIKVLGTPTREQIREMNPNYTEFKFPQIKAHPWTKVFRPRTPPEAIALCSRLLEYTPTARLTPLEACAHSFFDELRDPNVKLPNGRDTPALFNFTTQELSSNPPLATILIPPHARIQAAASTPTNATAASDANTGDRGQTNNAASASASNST
# Assay name: GSK-3 beta inhibition assay (33P-ATP, GS-2 peptide substrate, phosphocellulose filter counting)
# Type: biochemical
# Experimental conditions: test compound at 50µM; result in percentage of enzyme activity (lower = more inhibition)
activity at 50 µM class ranges: bin 1: < 20%; bin 2: ≥ 20% and < 50%; bin 3: ≥ 50%

>>> print(df.to_string())
                                   compound                          target_or_system    cat
0  CC(C)(C)[Si](OCCCSCc1ccco1)(c1ccccc1)c1ccccc1  Recombinant human glycogen synthase kinase 3 beta (Homo sapiens, UniProt P49841)  bin 1
1  CC(C)(C)[Si](OCCc1ccco1)(c1ccccc1)c1ccccc1  Recombinant human glycogen synthase kinase 3 beta (Homo sapiens, UniProt P49841)  bin 2
2                  CCOC(=O)C=C(C)CCCc1ccoc1  Recombinant human glycogen synthase kinase 3 beta (Homo sapiens, UniProt P49841)  bin 3
3  CC(C)(C)[Si](OCCCCCc1ccco1)(c1ccccc1)c1ccccc1  Recombinant human glycogen synthase kinase 3 beta (Homo sapiens, UniProt P49841)  bin 1
4  CC(=CC=CC(C)CCC=C(C)COC(=O)C(C)(C)C)CCCc1ccoc1 (centres unmarked)  Recombinant human glycogen synthase kinase 3 beta (Homo sapiens, UniProt P49841)  bin 2
5  CC(=CCCC(C)C=CC=C(C)CCCc1ccoc1)CO (centres unmarked)  Recombinant human glycogen synthase kinase 3 beta (Homo sapiens, UniProt P49841)  bin 3
6  CC(C)(C)[Si](OCCCc1ccco1)(c1ccccc1)c1ccccc1  Recombinant human glycogen synthase kinase 3 beta (Homo sapiens, UniProt P49841)  bin 2
7  CC(C)(C)[Si](OCCCCCCc1ccco1)(c1ccccc1)c1ccccc1  Recombinant human glycogen synthase kinase 3 beta (Homo sapiens, UniProt P49841)  bin 1
8                              OCC=Cc1ccoc1  Recombinant human glycogen synthase kinase 3 beta (Homo sapiens, UniProt P49841)  bin 3
9  CC(=CC=CC(C)CCCO[Si](c1ccccc1)(c1ccccc1)C(C)(C)C)CCCc1ccoc1 (centres unmarked)  Recombinant human glycogen synthase kinase 3 beta (Homo sapiens, UniProt P49841)  bin 1
